TARGET: TPM3-TRKA fusion protein (Homo sapiens, UniProt P04629)
Construct: The resulted chimeric proteins always retain the kinase domain of TRK proteins; TPM3 (fusion partner, N-terminal part of tropomyosin alpha-3, P06753); endogenous in cells; host or cells: KM12 colon cancer cells; the other entry of the earlier key: TPM3 (P06753, Tropomyosin alpha-3 chain)
Sequence (P04629 with tags, fused parts or gaps): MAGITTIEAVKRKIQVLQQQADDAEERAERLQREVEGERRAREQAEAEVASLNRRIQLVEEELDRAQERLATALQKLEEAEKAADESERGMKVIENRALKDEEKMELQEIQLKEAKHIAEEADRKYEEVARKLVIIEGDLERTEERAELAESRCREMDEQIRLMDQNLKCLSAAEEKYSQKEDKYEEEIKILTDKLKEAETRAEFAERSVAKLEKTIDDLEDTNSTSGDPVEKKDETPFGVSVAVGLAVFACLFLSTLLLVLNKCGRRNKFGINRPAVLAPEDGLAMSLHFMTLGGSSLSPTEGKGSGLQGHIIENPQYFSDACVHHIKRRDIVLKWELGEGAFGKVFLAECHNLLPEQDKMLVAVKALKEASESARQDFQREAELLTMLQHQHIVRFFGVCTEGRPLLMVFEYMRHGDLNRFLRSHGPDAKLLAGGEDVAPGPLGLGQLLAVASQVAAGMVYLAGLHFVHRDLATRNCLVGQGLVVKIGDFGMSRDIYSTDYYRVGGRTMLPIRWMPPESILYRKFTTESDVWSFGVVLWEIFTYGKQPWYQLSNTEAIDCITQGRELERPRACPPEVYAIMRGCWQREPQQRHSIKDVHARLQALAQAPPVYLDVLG
ASSAY_INFO: TPM3-TRKA fusion protein levels in KM12 cells (Western blot)
Type: cell-based
STUDY_CONDITIONS: 16 h; TPM3-TRKA degradation in KM12 cells at 10 nM compound, category of percentage degradation; read-out: Degradation (at 10 nM)
OUTCOME_MEASURE: percent degradation of TPM3-TRKA protein at 0.01 µM

Record summary for O=C1CCC(N2C(=O)c3cccc(NCCOCCC(=O)N4CCN(c5cccc(-c6cnc7ccc(N8CCC[C@@H]8c8cccc(F)c8)nn67)n5)CC4)c3C2=O)C(=O)N1 (some centres unmarked) : reported percent degradation of TPM3-TRKA protein at 0.01 µM = > 80%

====

TARGET: TPM3-TRKA fusion protein (Homo sapiens)
Construct: The resulted chimeric proteins always retain the kinase domain of TRK proteins; TPM3 (fusion partner, N-terminal part of tropomyosin alpha-3, P06753); endogenous in cells; host or cells: KM12 colon cancer cells; the other entry of the earlier key: TPM3 (P06753, Tropomyosin alpha-3 chain)
ASSAY_INFO: TPM3-TRKA fusion protein levels in KM12 cells (Western blot)
Format: cell-based
STUDY_CONDITIONS: 16 h; TPM3-TRKA degradation in KM12 cells at 10 nM compound, category of percentage degradation; read-out: Degradation (at 10 nM)
OUTCOME_MEASURE: percent degradation of TPM3-TRKA protein at 0.01 µM

COMPOUND	MEASUREMENT
O=C1CCC(N2C(=O)c3ccc(CCCN4CCN(c5ccc(C(=O)Nc6n[nH]c7ccc(Cc8cc(F)cc(F)c8)cc67)c(NC6CCOCC6)c5)CC4)cc3C2=O)C(=O)N1 (centres unmarked) [TR-276]	> 80%
O=C(CN1CCN(c2cccc(-c3cnc4ccc(N5CCC[C@@H]5c5cccc(F)c5)nn34)n2)CC1)NCCOCCOCCOCCOCCNc1cccc2c1C(=O)N(C1CCC(=O)NC1=O)C2=O (some centres unmarked) [TR-108]	> 80%
O=C1CCC(N2C(=O)c3ccc(NCCOCCN4CCN(c5cccc(-c6cnc7ccc(N8CCC[C@@H]8c8cccc(F)c8)nn67)n5)CC4)cc3C2=O)C(=O)N1 (some centres unmarked) [TR-176]	> 80%
O=C1CCC(N2Cc3cc(NCC(=O)N4CCN(c5cccc(-c6cnc7ccc(N8CCC[C@@H]8c8cccc(F)c8)nn67)n5)CC4)ccc3C2=O)C(=O)N1 (some centres unmarked) [TR-190]	> 80%
O=C1CCC(n2c(=O)n(CCCN3CCN(c4cccc(-c5cnc6ccc(N7CCC[C@@H]7c7cccc(F)c7)nn56)n4)CC3)c3ccccc32)C(=O)N1 (some centres unmarked) [TR-228]	50 to 80%
O=C1CCC(N2C(=O)c3cccc(NCCOCCOCCOCCOCCC(=O)N4CCN(c5cccc(-c6cnc7ccc(N8CCC[C@@H]8c8cccc(F)c8)nn67)n5)CC4)c3C2=O)C(=O)N1 (some centres unmarked) [CPD-021]	> 80%

Value of measured percent degradation of TPM3-TRKA protein at 0.01 µM for the entry Cn1c(=O)n(C2CCC(=O)NC2=O)c2cccc(NCCCN3CCN(c4cccc(-c5cnc6ccc(N7CCC[C@@H]7c7cccc(F)c7)nn56)n4)CC3)c21 (some centres unmarked) [TR-217] : > 80%

Data point: O=C(CN1CCN(c2cccc(-c3cnc4ccc(N5CCC[C@@H]5c5cccc(F)c5)nn34)n2)CC1)NCCOCCOCCOCCOCCOCCNc1cccc2c1C(=O)N(C1CCC(=O)NC1=O)C2=O (some centres unmarked) [TR-104] ; percent degradation of TPM3-TRKA protein at 0.01 µM = > 80%

O=C1CCC(N2Cc3cc(C#CC4CN(c5cccc(-c6cnc7ccc(N8CCC[C@@H]8c8cccc(F)c8)nn67)n5)C4)ccc3C2=O)C(=O)N1 (some centres unmarked) [TR-219] yielded percent degradation of TPM3-TRKA protein at 0.01 µM of 50 to 80%

Just so you know, measured percent degradation of TPM3-TRKA protein at 0.01 µM for Cn1c(=O)n(C2CCC(=O)NC2=O)c2ccc(C#CCCN3CCN(c4cccc(-c5cnc6ccc(N7CCC[C@@H]7c7cccc(F)c7)nn56)n4)CC3)cc21 (some centres unmarked) [TR-260] came out at > 80%

// recorded percent degradation of TPM3-TRKA protein at 0.01 µM for O=C1CCC(N2C(=O)c3ccc(NCCN4CCN(c5ccc(C(=O)Nc6n[nH]c7ccc(Cc8cc(F)cc(F)c8)cc67)cc5)CC4)cc3C2=O)C(=O)N1 (centres unmarked) [TR-263] : 50 to 80%

====

TARGET: TPM3-TRKA fusion protein (Homo sapiens, UniProt P04629)
Construct: The resulted chimeric proteins always retain the kinase domain of TRK proteins; TPM3 (fusion partner, N-terminal part of tropomyosin alpha-3, P06753); endogenous in cells; host or cells: KM12 colon cancer cells; the other entry of the earlier key: TPM3 (P06753, Tropomyosin alpha-3 chain)
ASSAY_INFO: TPM3-TRKA fusion protein levels in KM12 cells (Western blot)
Type: cell-based
STUDY_CONDITIONS: 16 h; TPM3-TRKA degradation in KM12 cells at 10 nM; read-out: Degradation (at 10 nM)
OUTCOME_MEASURE: percent degradation of TPM3-TRKA protein at 0.01 µM

percent degradation of TPM3-TRKA protein at 0.01 µM reported for this compound NC(=O)C1CCN(c2cc(CN3CCN(C(=O)CCOCCNc4cccc5c4C(=O)N(C4CCC(=O)NC4=O)C5=O)CC3)ccc2NC(=O)c2coc(N3CCOCC3)n2)CC1 (centres unmarked) : 50 to 80%

The compound listed as O=C1CCC(N2C(=O)c3ccc(NCCCC(=O)N4CCC(Nc5cccc(C(=O)Nc6cnn7ccc(N8CCC[C@@H]8c8cc(F)ccc8F)nc67)n5)CC4)cc3C2=O)C(=O)N1 (some centres unmarked) shows percent degradation of TPM3-TRKA protein at 0.01 µM equal to > 80%

====

System: KM12 cells
ASSAY_INFO: KM12 cell viability (CellTiter-Glo)
Type: cell-based
STUDY_CONDITIONS: Homo sapiens, KM12, 72 h
Item-by-item account of pIC50
Entry type: numeric. Quantity: pIC50, the -log10 of concentration in molar units.

COMPOUND	MEASUREMENT
Cn1c(=O)n(C2CCC(=O)NC2=O)c2cccc(C#CCN3CCN(c4cccc(-c5cnc6ccc(N7CCC[C@@H]7c7cccc(F)c7)nn56)n4)CC3)c21 (some centres unmarked)	7.79
NC(=O)C1CCN(c2cc(CN3CCN(C(=O)CNc4cccc5c4C(=O)N(C4CCC(=O)NC4=O)C5=O)CC3)ccc2NC(=O)c2coc(N3CCOCC3)n2)CC1 (centres unmarked)	7.55
Cn1c(=O)n(C2CCC(=O)NC2=O)c2cccc(OCCN3CCN(c4ccc(C(=O)Nc5n[nH]c6ccc(Cc7cc(F)cc(F)c7)cc56)c(NC5CCOCC5)c4)CC3)c21 (centres unmarked)	6.77
Cn1c(=O)n(C2CCC(=O)NC2=O)c2ccc(OCCN3CCN(c4ccc(C(=O)Nc5n[nH]c6ccc(Cc7cc(F)cc(F)c7)cc56)c(NC5CCOCC5)c4)CC3)cc21 (centres unmarked)	6.67

Please examine the following record next.
Form: compound = O=C1CCC(N2C(=O)c3ccc(CN4CC(N5CCN(c6ccc(C(=O)Nc7n[nH]c8ccc(Cc9cc(F)cc(F)c9)cc78)c(NC7CCOCC7)c6)CC5)C4)cc3C2=O)C(=O)N1 (centres unmarked) ; pIC50 = 7.69

====

TARGET: TPM3-TRKA fusion protein (Homo sapiens, UniProt P04629)
Construct: The resulted chimeric proteins always retain the kinase domain of TRK proteins; TPM3 (fusion partner, N-terminal part of tropomyosin alpha-3, P06753); endogenous in cells; host or cells: KM12 colon cancer cells; the other entry of the earlier key: TPM3 (P06753, Tropomyosin alpha-3 chain)
ASSAY_INFO: TPM3-TRKA fusion protein levels in KM12 cells (Western blot)
Assay type: cell-based
STUDY_CONDITIONS: 16 h; TPM3-TRKA degradation in KM12 cells at 10 nM compound, category of percentage degradation; read-out: Degradation (at 10 nM)
OUTCOME_MEASURE: percent degradation of TPM3-TRKA protein at 0.01 µM

Completed entries (count: 5):
COMPOUND	MEASUREMENT
O=C1CCC(N2C(=O)c3ccc(CN4CC(CN5CCN(c6ccc(C(=O)Nc7n[nH]c8ccc(Cc9cc(F)cc(F)c9)cc78)cc6)CC5)C4)cc3C2=O)C(=O)N1 (stereo not drawn) [TR-262]	> 80%
O=C1CCC(N2C(=O)c3ccc(NC(=O)CN4CCN(c5ccc(C(=O)Nc6n[nH]c7ccc(Cc8cc(F)cc(F)c8)cc67)c(NC6CCOCC6)c5)CC4)cc3C2=O)C(=O)N1 (stereo not drawn) [TR-273]	> 80%
Cn1c(=O)n(C2CCC(=O)NC2=O)c2cccc(C#CCCN3CCN(c4cccc(-c5cnc6ccc(N7CCC[C@@H]7c7cccc(F)c7)nn56)n4)CC3)c21 (stereo partly drawn) [TR-239]	> 80%
Cc1ncsc1-c1ccc(CNC(=O)[C@@H]2C[C@@H](O)CN2C(=O)[C@@H](NC(=O)CCCCCCCCC(=O)N2CCN(c3ccc(C(=O)Nc4n[nH]c5ccc(Cc6cc(F)cc(F)c6)cc45)c(NC4CCOCC4)c3)CC2)C(C)(C)C)cc1 [CPD-034]	< 50%
O=C1CCC(N2C(=O)c3cccc(NCCCCCCC(=O)N4CCN(c5ccc(C(=O)Nc6n[nH]c7ccc(Cc8cc(F)cc(F)c8)cc67)c(NC6CCOCC6)c5)CC4)c3C2=O)C(=O)N1 (stereo not drawn) [CPD-049]	> 80%

Considering O=C1CCC(N2Cc3cc(NCC4CCN(c5cccc(-c6cnc7ccc(N8CCC[C@@H]8c8cccc(F)c8)nn67)n5)CC4)ccc3C2=O)C(=O)N1 (stereo partly drawn) [TR-218] , its percent degradation of TPM3-TRKA protein at 0.01 µM with TPM3-TRKA fusion protein (Homo sapiens, UniProt P04629) was recorded as 50 to 80%

The compound O=C(CN1CCN(c2cccc(-c3cnc4ccc(N5CCC[C@@H]5c5cccc(F)c5)nn34)n2)CC1)NCCCNc1ccc2c(c1)C(=O)N(C1CCC(=O)NC1=O)C2=O (stereo partly drawn) [TR-127] on TPM3-TRKA fusion protein (Homo sapiens, UniProt P04629): percent degradation of TPM3-TRKA protein at 0.01 µM was > 80%

percent degradation of TPM3-TRKA protein at 0.01 µM of O=C1CCC(N2C(=O)c3ccc(NCCOCCOCCN4CCN(c5cccc(-c6cnc7ccc(N8CCC[C@H]8c8cccc(F)c8)nn67)n5)CC4)cc3C2=O)C(=O)N1 (stereo partly drawn) [TR-177] , assay on TPM3-TRKA fusion protein (Homo sapiens, UniProt P04629), is > 80%

Source of measurements: patent US12410171B2
